Values from ChEMBL document CHEMBL4808148

Overview of recorded inhibition for various compounds
Biological target: Protein deacetylase HDAC6 (Homo sapiens)
Settings: at 10 µM
In all, about 5,600 compounds went through this assay and about 390 (7%) showed an effect of 50% or more. This excerpt belongs to a sample that is enriched for strong results.
value type: inhibition (%)

INSERT INTO measurements (compound, readout_value) VALUES
  ('O=C(Nc1ccc2c(O)cc(S(=O)(=O)O)cc2c1)Nc1ccc2c(O)cc(S(=O)(=O)O)cc2c1', 45.9),
  ('CC(C)[C@H]1c2ccc(F)cc2CC[C@@]1(CCN(C)CCCc1nc2ccccc2[nH]1)OC(=O)C1CC1', 15.1),
  ('Cc1cc(OI)c(C(C)C)cc1-c1cc(C(C)C)c(OI)cc1C', 7.55),
  ('COc1cc2c(cc1C(F)(F)F)N(C(=O)Nc1cc(F)cc(-c3cccnc3)c1)CC2', -6.46),
  ('Cn1ccc2cc3c(cc21)CCN3C(=O)Nc1cccnc1', 100),
  ('C1=Cc2cccc(OCC3CNCCO3)c2C1 (stereo unspecified)', 18.4),
  ('CCOC(=O)c1ccc(C#Cc2ccc3c(c2)C(C)(C)CCS3)nc1', 22.8),
  ('COc1cc(N)cn[n+]1-c1ccccc1', 15.3),
  ('Cc1nc2n(c(=O)c1CCN1CCC(c3noc4cc(F)ccc34)CC1)CCCC2O (stereo unspecified)', -9.07),
  ('O=C(NC1CCC1)c1ccc(C#Cc2cccc(F)c2)nc1', 53.6),
  ('O=C(O)c1cc2ccccc2s1', 36);

###

Molecular target: Protein deacetylase HDAC6 (Homo sapiens) (UniProt Q9UBN7)
Sequence (whole entry): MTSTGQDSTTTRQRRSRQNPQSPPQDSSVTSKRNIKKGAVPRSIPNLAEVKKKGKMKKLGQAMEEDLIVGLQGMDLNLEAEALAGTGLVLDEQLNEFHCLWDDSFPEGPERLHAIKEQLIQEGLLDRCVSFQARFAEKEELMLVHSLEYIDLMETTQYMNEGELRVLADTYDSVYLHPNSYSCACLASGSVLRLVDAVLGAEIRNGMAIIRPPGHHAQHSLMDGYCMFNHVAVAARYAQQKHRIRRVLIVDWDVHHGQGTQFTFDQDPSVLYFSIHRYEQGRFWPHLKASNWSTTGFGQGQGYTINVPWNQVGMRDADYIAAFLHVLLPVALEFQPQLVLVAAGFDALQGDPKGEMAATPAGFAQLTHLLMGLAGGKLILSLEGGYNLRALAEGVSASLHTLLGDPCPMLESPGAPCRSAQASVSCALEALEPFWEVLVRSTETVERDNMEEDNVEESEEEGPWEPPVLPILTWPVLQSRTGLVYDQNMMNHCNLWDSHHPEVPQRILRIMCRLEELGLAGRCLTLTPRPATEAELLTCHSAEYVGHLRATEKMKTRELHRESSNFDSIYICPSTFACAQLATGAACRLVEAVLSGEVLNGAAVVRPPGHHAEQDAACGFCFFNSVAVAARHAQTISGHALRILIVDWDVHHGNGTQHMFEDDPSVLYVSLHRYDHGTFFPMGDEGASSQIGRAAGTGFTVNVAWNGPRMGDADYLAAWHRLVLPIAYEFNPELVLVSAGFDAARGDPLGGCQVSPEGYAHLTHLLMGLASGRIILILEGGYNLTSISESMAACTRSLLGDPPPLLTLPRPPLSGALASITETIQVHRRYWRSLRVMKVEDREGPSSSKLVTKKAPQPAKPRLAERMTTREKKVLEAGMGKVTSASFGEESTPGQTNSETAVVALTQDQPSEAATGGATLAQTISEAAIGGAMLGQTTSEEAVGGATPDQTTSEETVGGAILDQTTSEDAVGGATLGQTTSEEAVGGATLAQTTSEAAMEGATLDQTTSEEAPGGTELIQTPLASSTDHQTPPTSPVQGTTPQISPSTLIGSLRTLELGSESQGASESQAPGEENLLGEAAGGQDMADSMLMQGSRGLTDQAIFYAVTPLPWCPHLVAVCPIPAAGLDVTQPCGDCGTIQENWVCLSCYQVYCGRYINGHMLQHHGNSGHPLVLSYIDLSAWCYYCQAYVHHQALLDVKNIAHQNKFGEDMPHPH
Conditions: at 10 µM
The whole screen tested about 5,600 compounds, of which about 390 (7%) showed an effect of 50% or more. The entries come from a sample that favours strong results as a whole.
value type: inhibition (%)

INSERT INTO measurements (smiles_repr, readout_value) VALUES
  ('CC(=O)Nc1ccc(C(=O)Nc2ccccc2N)cc1', -0.35),
  ('COCCNC(=O)Cn1cnc([N+](=O)[O-])n1', 6.28),
  ('CC(C)[C@H](C(=O)Nc1ccc(C(=O)NO)cc1)c1ccccc1', 101),
  ('CN1[C@@H]2CC[C@H]1C[C@@H](OC(=O)c1c[nH]c3ccccc13)C2.CN1[C@@H]2CC[C@H]1C[C@H](OC(=O)c1c[nH]c3ccccc13)C2', 2.5),
  ('O=C1[C@H]2CCCC[C@H]2C(=O)N1CCCCN1CCN(c2nsc3ccccc23)CC1', 9.58);
